tested on: NHDF; test: Growth inhibition of human NHDF cells after 48 hrs by SRB assay; assay type: cell-based; settings: nhdf, 48 h
Would you mind telling me the reported TGI of each entry?

Asked: Return reported TGI; argument: O=c1[nH]cc(F)c(=O)[nH]1 [FLUOROURACIL]
Given back: 100 µM

Asked: Fill blank: measured TGI of the compound CCN1CCN(CCc2ccc(C(c3ccccc3)C34CC5CC(CC(C5)C3)C4)cc2)CC1 (stereo not drawn) is ____.
Given back: 83.6 µM

Asked: Which TGI value belongs to c1ccc(CN2CCN(CCCc3ccc(C(c4ccccc4)C45CC6CC(CC(C6)C4)C5)cc3)CC2)cc1 (stereo not drawn) ?
Given back: 100 µM

Asked: Which value of TGI has been reported for CN1CCN(CCCc2ccc(C(c3ccccc3)C34CC5CC(CC(C5)C3)C4)cc2)CC1 (stereo not drawn) in the records?
Given back: 78.2 µM

Asked: Give the measured TGI of c1ccc(C(c2ccc(CCCN3CCNCC3)cc2)C23CC4CC(CC(C4)C2)C3)cc1 (stereo not drawn) .
Given back: 6.82 µM

Asked: Could you tell me which TGI is on file for CCN1CCN(CCCc2ccc(C(c3ccccc3)C34CC5CC(CC(C5)C3)C4)cc2)CC1 (stereo not drawn) ?
Given back: 36.6 µM

Asked: Please report the recorded TGI for CN1CCN(Cc2ccc(C(c3ccccc3)C34CC5CC(CC(C5)C3)C4)cc2)CC1 (stereo not drawn) .
Given back: 10.4 µM

Asked: Which TGI is listed for CN1CCN(CCc2ccc(C(c3ccccc3)C34CC5CC(CC(C5)C3)C4)cc2)CC1 (stereo not drawn) ?
Given back: 8.07 µM

Asked: Fill blank: measured TGI of the compound c1ccc(C(c2ccc(CN3CCNCC3)cc2)C23CC4CC(CC(C4)C2)C3)cc1 (stereo not drawn) is ____.
Given back: 6.69 µM

Asked: Item c1ccc(C(c2ccc(CCN3CCCCC3)cc2)C23CC4CC(CC(C4)C2)C3)cc1 (stereo not drawn) has what recorded TGI?
Given back: 59 µM

Asked: # query: TGI of entry c1ccc(C(c2ccc(CCCN3CCCCC3)cc2)C23CC4CC(CC(C4)C2)C3)cc1 (stereo not drawn)
Given back: 6.15 µM

Asked: Fill in the blank: the reported TGI of c1ccc(C(c2ccc(CN3CCCCC3)cc2)C23CC4CC(CC(C4)C2)C3)cc1 (stereo not drawn) is ____.
Given back: 52.5 µM

Asked: Query (compound): CCN1CCN(Cc2ccc(C(c3ccccc3)C34CC5CC(CC(C5)C3)C4)cc2)CC1 (stereo not drawn) ; field requested: TGI
Given back: 66.8 µM

====

experiment: Growth inhibition of human HUVEC cells after 48 hrs by SRB assay; type: cell-based; settings: HUVEC cells
Rule: measured GI50 at 48 h below 4 µM gets 1; anything equal to or greater than 4 µM gets -1.

Asked: Given the entry c1ccc(C(c2ccc(CN3CCCCC3)cc2)C23CC4CC(CC(C4)C2)C3)cc1 (stereo not given) , would its reported GI50 at 48 h be below 4 µM?
Given back: -1

Asked: Here's an entry: c1ccc(C(c2ccc(CCN3CCCCC3)cc2)C23CC4CC(CC(C4)C2)C3)cc1 (stereo not given) . Is its GI50 at 48 h below 4 µM?
Given back: -1

Asked: GI50 at 48 h under 4 µM? Item: c1ccc(C(c2ccc(CN3CCNCC3)cc2)C23CC4CC(CC(C4)C2)C3)cc1 (stereo not given)
Given back: 1

Asked: Here's an entry: CN1CCN(CCCc2ccc(C(c3ccccc3)C34CC5CC(CC(C5)C3)C4)cc2)CC1 (stereo not given) . Is its GI50 at 48 h below 4 µM?
Given back: 1
